test system: NCI-H460 lung; assay: NCI tumour cell line growth inhibition, 48 h
Consider the following compounds and their measured TGI readings.

Please review the entries below; each comes with its answer.
Reported TGI ( CCCCCCCCCCCCCCCCOP(=O)([O-])OCC[N+](C)(C)C1CC(C)(C)N(O)C(C)(C)C1 ) = > 100 µM

Reported TGI ( CCOC(=O)C1(C)CCC(C(=O)OC)C1=O (stereo not given) ) = 28.6 µM

Reported TGI ( CNS(=O)(=O)Nc1nccc(Cc2c(C)c3ccc(Oc4ncccn4)cc3oc2=O)c1F ) = > 100 µM

Reported TGI ( C=CCN(c1cc(O)c2c(c(C)cn2S(=O)(=O)c2ccccc2)c1[N+](=O)[O-])S(C)(=O)=O ) = > 100 µM

Here is the next item to consider.
Reported TGI ( N#CCC(=O)N/N=C\C(O)C(O)C(O)C(O)CO (stereo not given) ) = > 100 µM
